Assay: Urinary excretion of CR665 after single IV infusion in human subjects
Assay type: in vivo
Conditions: male, human, urine, iv, males, 5-minute infusion, Parts A & B; read-out: fe0-24 h, geometric least squares mean
Counter-ions that a name gives are not always drawn. Non-standard residues stand in square brackets, D forms with d. Residues, ends and D or L forms follow the SMILES beside them. *: point of attachment. NH(4-picolyl) = c1cc(CN*)ccn1; dNle = CCCC[C@@H](N)C(=O)O
measured endpoint: dose excreted (%)

INSERT INTO measurements (compound, measured_endpoint, val) VALUES
  ('CCCC[C@@H](NC(=O)[C@@H](Cc1ccccc1)NC(=O)[C@H](N)Cc1ccccc1)C(=O)N[C@H](CCCNC(=N)N)C(=O)NCc1ccncc1 [CR665, acetate salt] (H-[dF][dF][dNle][dR]-{NH(4-picolyl)})', 'dose excreted', 3.48);

----------
Assay: Plasma pharmacokinetics of CR665 after single IV infusion in human subjects
Details: male, human, plasma, intravenous, Vss, geometric least squares mean, males, 1-hour infusion, Parts A & B
Counter-ions that a name gives are not always drawn. Non-standard residues stand in square brackets, D forms with d. Residues, ends and D or L forms follow the SMILES beside them. *: point of attachment. NH(4-picolyl) = c1cc(CN*)ccn1; dNle = CCCC[C@@H](N)C(=O)O
measured endpoint: Vd (L)

INSERT INTO measurements (compound, measured_endpoint, val) VALUES
  ('CCCC[C@@H](NC(=O)[C@@H](Cc1ccccc1)NC(=O)[C@H](N)Cc1ccccc1)C(=O)N[C@H](CCCNC(=N)N)C(=O)NCc1ccncc1 [CR665, acetate salt] (H-[dF][dF][dNle][dR]-{NH(4-picolyl)})', 'Vd', 20.1);

----------
Experiment: Plasma pharmacokinetics of CR665 after single IV infusion in human subjects
Conditions: male, human, plasma, intravenous, CL, geometric least squares mean, males, 5-minute infusion, Parts A & B
Structures can show the parent of a compound that is named as a salt. Non-standard residues stand in square brackets, D forms with d. Residues, ends and D or L forms follow the SMILES beside them. *: point of attachment. NH(4-picolyl) = c1cc(CN*)ccn1; dNle = CCCC[C@@H](N)C(=O)O
measured endpoint: clearance (mL/min)

INSERT INTO measurements (compound, val) VALUES
  ('CCCC[C@@H](NC(=O)[C@@H](Cc1ccccc1)NC(=O)[C@H](N)Cc1ccccc1)C(=O)N[C@H](CCCNC(=N)N)C(=O)NCc1ccncc1 [CR665, acetate salt] (H-[dF][dF][dNle][dR]-{NH(4-picolyl)})', 538);

----------
Experiment: Plasma pharmacokinetics of CR665 after single IV infusion in human subjects
Settings: male, human, plasma, iv, 0.03 mg/kg, tmax, males, 5-minute IV infusion, median
Where a name gives a salt, the structure may show the parent alone. Non-standard residues stand in square brackets, D forms with d. Residues, ends and D or L forms follow the SMILES beside them. *: point of attachment. NH(4-picolyl) = c1cc(CN*)ccn1; dNle = CCCC[C@@H](N)C(=O)O
measured endpoint: Tmax (min)

INSERT INTO measurements (molecule, measured_endpoint, val) VALUES
  ('CCCC[C@@H](NC(=O)[C@@H](Cc1ccccc1)NC(=O)[C@H](N)Cc1ccccc1)C(=O)N[C@H](CCCNC(=N)N)C(=O)NCc1ccncc1 [CR665, acetate salt] (H-[dF][dF][dNle][dR]-{NH(4-picolyl)})', 'Tmax', 5);

----------
Assay: Plasma pharmacokinetics of CR665 after single IV infusion in human subjects
Details: female, human, plasma, intravenous, 0.06 mg/kg, Mean terminal elimination half life, females, 5-minute infusion
Where a name gives a salt, the structure may show the parent alone. Non-standard residues stand in square brackets, D forms with d. Residues, ends and D or L forms follow the SMILES beside them. *: point of attachment. NH(4-picolyl) = c1cc(CN*)ccn1; dNle = CCCC[C@@H](N)C(=O)O
measured endpoint: half-life

INSERT INTO measurements (compound, val) VALUES
  ('CCCC[C@@H](NC(=O)[C@@H](Cc1ccccc1)NC(=O)[C@H](N)Cc1ccccc1)C(=O)N[C@H](CCCNC(=N)N)C(=O)NCc1ccncc1 [CR665, acetate salt] (H-[dF][dF][dNle][dR]-{NH(4-picolyl)})', '~48 min');

----------
Test: Plasma pharmacokinetics of CR665 after single IV infusion in human subjects
Conditions: female, human, plasma, iv, 0.24 mg/kg, AUC0-∞, females, 1-hour IV infusion, geometric mean
Structures can show the parent of a compound that is named as a salt. Non-standard residues stand in square brackets, D forms with d. Residues, ends and D or L forms follow the SMILES beside them. *: point of attachment. NH(4-picolyl) = c1cc(CN*)ccn1; dNle = CCCC[C@@H](N)C(=O)O
measured endpoint: AUC(0-inf) (ng·h/mL)

INSERT INTO results (molecule, measured_endpoint, val) VALUES
  ('CCCC[C@@H](NC(=O)[C@@H](Cc1ccccc1)NC(=O)[C@H](N)Cc1ccccc1)C(=O)N[C@H](CCCNC(=N)N)C(=O)NCc1ccncc1 [CR665, acetate salt] (H-[dF][dF][dNle][dR]-{NH(4-picolyl)})', 'AUC(0-inf)', 442);

----------
Experiment: Plasma pharmacokinetics of CR665 after single IV infusion in human subjects
Conditions: male, human, plasma, iv, 0.015 mg/kg, CL, males, 1 hour IV infusion, geometric mean
Where a name gives a salt, the structure may show the parent alone. Non-standard residues stand in square brackets, D forms with d. Residues, ends and D or L forms follow the SMILES beside them. *: point of attachment. NH(4-picolyl) = c1cc(CN*)ccn1; dNle = CCCC[C@@H](N)C(=O)O
measured endpoint: clearance (mL/min)

INSERT INTO assay_data (compound, measured_endpoint, u, val) VALUES
  ('CCCC[C@@H](NC(=O)[C@@H](Cc1ccccc1)NC(=O)[C@H](N)Cc1ccccc1)C(=O)N[C@H](CCCNC(=N)N)C(=O)NCc1ccncc1 [CR665, acetate salt] (H-[dF][dF][dNle][dR]-{NH(4-picolyl)})', 'clearance', 'mL/min', 560);

----------
Assay: Plasma pharmacokinetics of CR665 after single IV infusion in human subjects
Settings: male, human, plasma, iv, 0.06 mg/kg, Cmax, males, 1 hour IV infusion, geometric mean
Where a name gives a salt, the structure may show the parent alone. Non-standard residues stand in square brackets, D forms with d. Residues, ends and D or L forms follow the SMILES beside them. *: point of attachment. NH(4-picolyl) = c1cc(CN*)ccn1; dNle = CCCC[C@@H](N)C(=O)O
measured endpoint: Cmax (ng/mL)

INSERT INTO measurements (compound, val) VALUES
  ('CCCC[C@@H](NC(=O)[C@@H](Cc1ccccc1)NC(=O)[C@H](N)Cc1ccccc1)C(=O)N[C@H](CCCNC(=N)N)C(=O)NCc1ccncc1 [CR665, acetate salt] (H-[dF][dF][dNle][dR]-{NH(4-picolyl)})', 119);

----------
Experiment: Plasma pharmacokinetics of CR665 after single IV infusion in human subjects
Details: male, human, plasma, iv, 0.015 mg/kg, Vz, males, 1 hour IV infusion, geometric mean
Structures can show the parent of a compound that is named as a salt. Non-standard residues stand in square brackets, D forms with d. Residues, ends and D or L forms follow the SMILES beside them. *: point of attachment. NH(4-picolyl) = c1cc(CN*)ccn1; dNle = CCCC[C@@H](N)C(=O)O
measured endpoint: Vd (L)

INSERT INTO measurements (compound, u, val) VALUES
  ('CCCC[C@@H](NC(=O)[C@@H](Cc1ccccc1)NC(=O)[C@H](N)Cc1ccccc1)C(=O)N[C@H](CCCNC(=N)N)C(=O)NCc1ccncc1 [CR665, acetate salt] (H-[dF][dF][dNle][dR]-{NH(4-picolyl)})', 'L', 33.5);

----------
Assay: Plasma pharmacokinetics of CR665 after single IV infusion in human subjects
Details: male, human, plasma, iv, 0.015 mg/kg, t1/2, males, 1 hour IV infusion, geometric mean
Counter-ions that a name gives are not always drawn. Non-standard residues stand in square brackets, D forms with d. Residues, ends and D or L forms follow the SMILES beside them. *: point of attachment. NH(4-picolyl) = c1cc(CN*)ccn1; dNle = CCCC[C@@H](N)C(=O)O
measured endpoint: half-life

INSERT INTO assay_data (compound, measured_endpoint, val) VALUES
  ('CCCC[C@@H](NC(=O)[C@@H](Cc1ccccc1)NC(=O)[C@H](N)Cc1ccccc1)C(=O)N[C@H](CCCNC(=N)N)C(=O)NCc1ccncc1 [CR665, acetate salt] (H-[dF][dF][dNle][dR]-{NH(4-picolyl)})', 'half-life', '41.5 min');

----------
Assay: Plasma pharmacokinetics of CR665 after single IV infusion in human subjects
Details: male, human, plasma, iv, 0.36 mg/kg, AUC0-∞, males, 1 hour IV infusion, geometric mean
Structures can show the parent of a compound that is named as a salt. Non-standard residues stand in square brackets, D forms with d. Residues, ends and D or L forms follow the SMILES beside them. *: point of attachment. NH(4-picolyl) = c1cc(CN*)ccn1; dNle = CCCC[C@@H](N)C(=O)O
measured endpoint: AUC(0-inf) (ng·h/mL)

INSERT INTO measurements (molecule, u, val) VALUES
  ('CCCC[C@@H](NC(=O)[C@@H](Cc1ccccc1)NC(=O)[C@H](N)Cc1ccccc1)C(=O)N[C@H](CCCNC(=N)N)C(=O)NCc1ccncc1 [CR665, acetate salt] (H-[dF][dF][dNle][dR]-{NH(4-picolyl)})', 'ng·h/mL', 812);

Reference source for all entries: patent US8217000B2
